Assay: The drug is tested on Z-011 corresponding to mouse gut metagenome with ENA study accession number: PRJEB37062 and ENA sample accession number: ERS12561811 for biotransformation under anaerobic condition. The drug concentrations were measured over 9 timepoints collected between 0 and 24 hours of incubation by liquid-chromatography-coupled mass spectrometry (LC–MS); further: call rule not given here
Conditions: 2 µM
measureName: Bacterial Biotransformation

Use the examples below as a reference point.
# compound, Bacterial Biotransformation
records = [
    ("CN1CCC[C@@H]1CCO[C@](C)(c1ccccc1)c1ccc(Cl)cc1.O=C(O)/C=C/C(=O)O [CLEMASTINE FUMARATE]", "Compound NOT metabolized"),
    ("CC(=O)OCC(CCn1cnc2cnc(N)nc21)COC(C)=O", "Compound metabolized"),
    ("COc1ccc([C@@H]2Sc3ccccc3N(CCN(C)C)C(=O)[C@@H]2OC(C)=O)cc1", "Compound NOT metabolized"),
    ("O=C1CN2Cc3c(ccc(Cl)c3Cl)N=C2N1 [ANAGRELIDE]", "Compound NOT metabolized"),
    ("CC(C)(C)NCC(O)COc1cccc2c1CC(O)C(O)C2 (stereo unspecified)", "Compound metabolized"),
]

Now look at this entry.
Entry CCCN1C[C@H](CSC)C[C@@H]2c3cccc4[nH]cc(c34)C[C@H]21.CS(=O)(=O)O [PERGOLIDE MESYLATE] , Bacterial Biotransformation reported as Compound NOT metabolized

====

Experiment: The drug is tested on Z-024 corresponding to pig gut metagenome with ENA study accession number: PRJEB37062 and ENA sample accession number: ERS12561823 for biotransformation under anaerobic condition. The drug concentrations were measured over 9 timepoints collected between 0 and 24 hours of incubation by liquid-chromatography-coupled mass spectrometry (LC–MS)
Details: 2 µM
measureName: Bacterial Biotransformation

Use the examples below as a reference point.
# compound, assayValue
measured = [
    ("CCS(=O)(=O)CCn1c([N+](=O)[O-])cnc1C", "Compound metabolized"),
    ("O=P1(N(CCCl)CCCl)NCCCO1 (stereo not given) [CYCLOPHOSPHAMIDE ANHYDROUS]", "Compound NOT metabolized"),
    ("CNNCc1ccc(C(=O)NC(C)C)cc1", "Compound metabolized"),
    ("CC(C)(C)NCC(O)COc1cccc2c1CC(O)C(O)C2 (stereo not given)", "Compound NOT metabolized"),
    ("COc1ccccc1OCCNCC(O)COc1cccc2[nH]c3ccccc3c12 (stereo not given)", "Compound metabolized"),
]

Entry CN[C@H]1CC[C@@H](c2ccc(Cl)c(Cl)c2)c2ccccc21 , Bacterial Biotransformation reported as Compound metabolized

Entry CCOc1ccc2nc(S(N)(=O)=O)sc2c1 [ETHOXZOLAMIDE] , Bacterial Biotransformation reported as Compound NOT metabolized

Entry CCN(C)C(=O)Oc1cccc([C@H](C)N(C)C)c1.O=C(O)C(O)C(O)C(=O)O [RIVASTIGMINE TARTRATE] , Bacterial Biotransformation reported as Compound NOT metabolized

Entry CN1CCCCC1CCN1c2ccccc2Sc2ccc([S+](C)[O-])cc21.O=S(=O)(O)c1ccccc1 (stereo not given) [MESORIDAZINE BESYLATE] , Bacterial Biotransformation reported as Compound NOT metabolized

Entry Nc1nc(N)nc(-c2cc(Cl)ccc2Cl)n1.O=C(O)/C=C\C(=O)O [IRSOGLADINE MALEATE] , Bacterial Biotransformation reported as Compound NOT metabolized

Entry COc1ccc([C@@H]2Sc3ccccc3N(CCN(C)C)C(=O)[C@@H]2OC(C)=O)cc1 , Bacterial Biotransformation reported as Compound NOT metabolized

Entry Cc1ccccc1C(OCCN(C)C)c1ccccc1.O=C(O)CC(O)(CC(=O)O)C(=O)O (stereo not given) [ORPHENADRINE CITRATE] , Bacterial Biotransformation reported as Compound metabolized

Entry CCOC(=O)C1=C[C@]2(CC)CCCN3CCc4c(n1c1ccccc41)[C@@H]32 , Bacterial Biotransformation reported as Compound metabolized

Entry CN(C)CCC=C1c2ccccc2COc2ccccc21 [DOXEPIN] , Bacterial Biotransformation reported as Compound metabolized

Entry CCOc1cc(CC(=O)N[C@@H](CC(C)C)c2ccccc2N2CCCCC2)ccc1C(=O)O [REPAGLINIDE] , Bacterial Biotransformation reported as Compound metabolized

Entry C[C@H]1C[C@H]2[C@@H]3CCC4=CC(=O)C=C[C@]4(C)[C@@]3(F)[C@@H](O)C[C@]2(C)[C@@]1(O)C(=O)CO , Bacterial Biotransformation reported as Compound metabolized

Entry CN(C)C(=O)Oc1cc(OC(=O)N(C)C)cc(C(O)CNC(C)(C)C)c1 (stereo not given) , Bacterial Biotransformation reported as Compound NOT metabolized

Entry CC(=O)SCC(Cc1ccccc1)C(=O)NCC(=O)OCc1ccccc1 (stereo not given) , Bacterial Biotransformation reported as Compound metabolized

Entry CN(C)CCOC(C)(c1ccccc1)c1ccccn1.O=C(O)CCC(=O)O (stereo not given) [DOXYLAMINE SUCCINATE] , Bacterial Biotransformation reported as Compound NOT metabolized

Entry O=C1CCc2ccc(OCCCCN3CCN(c4cccc(Cl)c4Cl)CC3)cc2N1 , Bacterial Biotransformation reported as Compound metabolized

Entry C[N+]12CCC(CC1)C(OC(=O)C(O)(c1ccccc1)c1ccccc1)C2.[Br-] (stereo not given) [CLIDINIUM BROMIDE] , Bacterial Biotransformation reported as Compound metabolized

Entry CCOC(=O)[C@H](CCc1ccccc1)N[C@@H](C)C(=O)N1CCC[C@H]1C(=O)O.O=C(O)/C=C\C(=O)O [ENALAPRIL MALEATE] , Bacterial Biotransformation reported as Compound metabolized

Entry CC(CCc1ccccc1)NCC(O)c1ccc(O)c(C(N)=O)c1 (stereo not given) , Bacterial Biotransformation reported as Compound metabolized

Entry CC(=O)OCC(=O)NCCCOc1cccc(CN2CCCCC2)c1 [ROXATIDINE ACETATE] , Bacterial Biotransformation reported as Compound metabolized

Entry CC(N)C12CC3CC(CC(C3)C1)C2 (stereo not given) , Bacterial Biotransformation reported as Compound NOT metabolized

====

Test: The drug is tested on Z-006 corresponding to mouse gut metagenome with ENA study accession number: PRJEB37062 and ENA sample accession number: ERS12561806 for biotransformation under anaerobic condition. The drug concentrations were measured over 9 timepoints collected between 0 and 24 hours of incubation by liquid-chromatography-coupled mass spectrometry (LC–MS)
Details: 2 µM
measureName: Bacterial Biotransformation

Use the examples below as a reference point.
# compound, Bacterial Biotransformation
records = [
    ("CC[C@H](C)C(=O)O[C@H]1CCC=C2C=C[C@H](C)[C@H](CC[C@@H]3C[C@@H](O)CC(=O)O3)[C@H]21 [MEVASTATIN]", "Compound NOT metabolized"),
    ("COc1ccnc(C[S+]([O-])c2nc3ccc(OC(F)F)cc3[nH]2)c1OC (configuration not stated) [PANTOPRAZOLE]", "Compound metabolized"),
    ("CCS(=O)(=O)CCn1c([N+](=O)[O-])cnc1C [TINIDAZOLE]", "Compound metabolized"),
    ("COc1ccc(C(CN(C)C)C2(O)CCCCC2)cc1 (configuration not stated) [VENLAFAXINE]", "Compound NOT metabolized"),
    ("O=C1N=C([O-])NC1(c1ccccc1)c1ccccc1.[Na+] [PHENYTOIN SODIUM]", "Compound NOT metabolized"),
    ("Nc1nnc(-c2cccc(Cl)c2Cl)c(N)n1 [LAMOTRIGINE]", "Compound NOT metabolized"),
    ("C=C[C@H]1CN2CC[C@H]1C[C@H]2[C@H](O)c1ccnc2ccc(OC)cc12.C=C[C@H]1CN2CC[C@H]1C[C@H]2[C@H](O)c1ccnc2ccc(OC)cc12.O.O.O=S(=O)(O)O [QUININE SULFATE]", "Compound NOT metabolized"),
    ("CCc1cccc2c3c([nH]c12)C(CC)(CC(=O)O)OCC3 (configuration not stated) [ETODOLAC]", "Compound NOT metabolized"),
    ("C[C@]12C=CC(=O)C=C1CC[C@@H]1[C@@H]2C(=O)C[C@@]2(C)[C@H]1CC[C@]2(O)C(=O)CO [PREDNISONE]", "Compound metabolized"),
    ("Cc1ccccc1C(OCCN(C)C)c1ccccc1.O=C(O)CC(O)(CC(=O)O)C(=O)O (configuration not stated) [ORPHENADRINE CITRATE]", "Compound NOT metabolized"),
]

Entry COc1ccccc1OCCNCC(O)COc1cccc2[nH]c3ccccc3c12 (configuration not stated) [CARVEDILOL] , Bacterial Biotransformation reported as Compound NOT metabolized

Entry C[N+]12CCC(CC1)C(OC(=O)C(O)(c1ccccc1)c1ccccc1)C2.[Br-] (configuration not stated) [CLIDINIUM BROMIDE] , Bacterial Biotransformation reported as Compound NOT metabolized

====

Test: The drug is tested on Z-001 corresponding to mouse gut metagenome with ENA study accession number: PRJEB37062 and ENA sample accession number: ERS12561801 for biotransformation under anaerobic condition. The drug concentrations were measured over 9 timepoints collected between 0 and 24 hours of incubation by liquid-chromatography-coupled mass spectrometry (LC–MS)
Conditions: 2 µM
measureName: Bacterial Biotransformation

Use the examples below as a reference point.
# compound, Bacterial Biotransformation
rows = [
    ("CC(C)c1c(CN(C)C(C)Cc2ccccc2)n(C)n(-c2ccccc2)c1=O (stereo not drawn)", "Compound metabolized"),
    ("CN(C)C(=O)Oc1cc(OC(=O)N(C)C)cc(C(O)CNC(C)(C)C)c1 (stereo not drawn)", "Compound metabolized"),
    ("CC(=O)CCCCn1c(=O)c2c(ncn2C)n(C)c1=O", "Compound NOT metabolized"),
    ("Nc1nc(N)nc(-c2cc(Cl)ccc2Cl)n1.O=C(O)/C=C\\C(=O)O [IRSOGLADINE MALEATE]", "Compound NOT metabolized"),
    ("CC12CC3CC(C)(C1)CC(N)(C3)C2 [MEMANTINE]", "Compound NOT metabolized"),
    ("CN(C)CCC=C1c2ccccc2COc2ccccc21 [DOXEPIN]", "Compound NOT metabolized"),
]

Entry CC(=O)OCC(=O)[C@@]1(OC(C)=O)[C@@H](C)C[C@H]2[C@@H]3C[C@H](F)C4=CC(=O)C=C[C@]4(C)[C@@]3(F)[C@@H](O)C[C@@]21C [DIFLORASONE DIACETATE] , Bacterial Biotransformation reported as Compound metabolized

Entry N[C@@H](Cc1ccc(N(CCCl)CCCl)cc1)C(=O)O , Bacterial Biotransformation reported as Compound metabolized

Entry CC#C[C@]1(O)CC[C@H]2[C@@H]3CCC4=CC(=O)CCC4=C3[C@@H](c3ccc(N(C)C)cc3)C[C@@]21C , Bacterial Biotransformation reported as Compound NOT metabolized

Entry CN1[C@@H]2CC[C@H]1C[C@@H](OC(=O)c1c[nH]c3ccccc13)C2 , Bacterial Biotransformation reported as Compound NOT metabolized

Entry O=C1N=C([O-])NC1(c1ccccc1)c1ccccc1.[Na+] [PHENYTOIN SODIUM] , Bacterial Biotransformation reported as Compound NOT metabolized

Entry CN(C)C(=O)Oc1cccc([N+](C)(C)C)c1.[Br-] [NEOSTIGMINE BROMIDE] , Bacterial Biotransformation reported as Compound metabolized

Entry Br.CN1CCC[C@@H]1Cc1c[nH]c2ccc(CCS(=O)(=O)c3ccccc3)cc12 [ELETRIPTAN HYDROBROMIDE] , Bacterial Biotransformation reported as Compound NOT metabolized

Entry O=C(O)c1cc(/N=N/c2ccc(S(=O)(=O)Nc3ccccn3)cc2)ccc1O , Bacterial Biotransformation reported as Compound metabolized

Entry C=C[C@H]1CN2CC[C@H]1C[C@H]2[C@H](O)c1ccnc2ccc(OC)cc12.C=C[C@H]1CN2CC[C@H]1C[C@H]2[C@H](O)c1ccnc2ccc(OC)cc12.O.O.O=S(=O)(O)O [QUININE SULFATE] , Bacterial Biotransformation reported as Compound NOT metabolized

Entry COCCCC/C(=N\OCCN)c1ccc(C(F)(F)F)cc1.O=C(O)/C=C\C(=O)O [FLUVOXAMINE MALEATE] , Bacterial Biotransformation reported as Compound metabolized

Entry CN1CCCCC1CCN1c2ccccc2Sc2ccc([S+](C)[O-])cc21.O=S(=O)(O)c1ccccc1 (stereo not drawn) [MESORIDAZINE BESYLATE] , Bacterial Biotransformation reported as Compound NOT metabolized

Entry Cc1cc2c(s1)Nc1ccccc1N=C2N1CCN(C)CC1 , Bacterial Biotransformation reported as Compound metabolized
